Where these numbers come from: the Human Domainome abundance scans (Beltran et al. 2025)

B1: Gamma-crystallin D, residues 90 to 170; numbered along this chain, P07320 (parent)
chain: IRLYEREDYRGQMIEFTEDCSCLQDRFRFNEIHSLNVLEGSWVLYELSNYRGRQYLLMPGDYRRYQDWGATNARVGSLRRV

- Variants of: B1
- test-protocol: abundance fitness (aPCA) (normalised: wild type 0, dead -1); higher = more abundant; growth selection in yeast, the domain comes from the species named
- cond: Homo sapiens
Measured abundance fitness, listed per entry for reference.
API doc: respond with a numeric literal and nothing else, no unit.

Some solved entries appear below for comparison.
{"columns": ["changes", "experimental-endpoint", "measured-result"],
 "data": [
  ["Q54G", "abundance fitness", -0.203],
  ["L38A", "abundance fitness", -0.066],
  ["S41I", "abundance fitness", -0.161]
]}

Recorded abundance fitness for V37M , please? -0.338

Proceed to T17D -0.012

Proceed to Y45H -0.151

Proceed to N49G -0.074

Proceed to S34E -0.853

Proceed to V43R 0.006

Proceed to E18S 0.04

Proceed to E46S -0.113

Proceed to C22A 0.002

Proceed to D19S -0.115

Proceed to L35V 0.048
